- Test system: K-562 leukemia
- assay.notes: NCI tumour cell line growth inhibition, 48 h; in the data active means GI50 below about 0.43 µM; inactive means the rest
Your response should consist of one outcome taken from y (active), n (inactive)

>>> assigned_label("CC1=C([Te]c2ccccc2)C(=O)c2ccccc2C1=O")
"n"
>>> assigned_label("COc1ccc(-c2ncnc3c2ncn3CC#CCCl)cc1")
"n"

Task: Could you please tell me the result logged for CC1(C)N=C(N)N=C(N)N1c1ccc(CNC(=O)Nc2ccc(S(=O)(=O)F)c(Cl)c2)c(Cl)c1 in this assay?
Output: y

###

- Test system: HOP-62 NSCLC
- assay.notes: NCI tumour cell line growth inhibition, 48 h
// reported GI50 for each item listed

Recorded GI50, per entry:
>>> measured("CCCc1nn(C)c2c(=O)[nH]c(-c3cc(S(=O)(=O)N4CCN(C)CC4)ccc3OCC)nc12")
"> 100 µM"
>>> measured("CC1(C)N=C(N)N=C(N)N1c1ccc(CNC(=O)Nc2ccc(S(=O)(=O)F)c(Cl)c2)c(Cl)c1")
"9.81 µM"
>>> measured("CCC1=C(c2ccc(OC)cc2)C(C)(C)Oc2c1ccc(O)c2CN1CCCC1")
"1.99 µM"
>>> measured("CSc1cc([C@@H]2C[C@H]2c2ccc(Cl)cc2)on1")
"13.8 µM"
>>> measured("C(=N\\Nc1ncc(-c2cc3cc4c(cc3o2)OCO4)s1)/c1ccco1")
"3.04 µM"
>>> measured("COc1ccc2cc(-c3cnc4nonc4n3)ccc2c1")
"5.22 µM"
>>> measured("NCCCCC(NC(=O)C(N)CCCN=C(N)N)C(=O)NC(CCCCN)C(=O)NC(CCCN=C(N)N)C(=O)NC(CCCN=C(N)N)C(=O)NC(CCC(N)=O)C(=O)NC(CCCN=C(N)N)C(=O)NC(CCCN=C(N)N)C(=O)NC(CCCN=C(N)N)C(=O)NCC(=O)NCC(=O)O (stereo not drawn)")
"> 50 µM"

# next compound below
Task: Output GI50 of CSc1ccc(C2=NN(C(C)=O)C(c3ccc(-c4cc(Cl)c(Cl)cc4Cl)o3)C2)cc1 (stereo not drawn)
Output: 15.8 µM

###

- Test system: UO-31 renal
- assay.notes: NCI tumour cell line growth inhibition, 48 h
// reported TGI for each item listed

Recorded TGI, per entry:
>>> measured("c1ccc(SC(Sc2ccccc2)=C2CCC2)cc1")
"> 100 µM"
>>> measured("CC1=CCC2CC1C(C(=O)c1c[nH]c3ccccc13)=NC2(C)C (configuration not stated)")
"> 100 µM"
>>> measured("CCOC(=O)c1ccc(-n2cnc(-c3ccc([N+](=O)[O-])cc3)c2)cc1")
"> 100 µM"
>>> measured("CC1CCN(C(C)C)P(=S)(Cc2ccccc2)O1 (configuration not stated)")
"> 100 µM"
>>> measured("O=C1Nc2c(Cl)cc(Cl)cc2/C1=N/N=C/c1ccco1")
"55.4 µM"
>>> measured("CC(C)(C)OC(=O)NCC(CNC(=O)OC(C)(C)C)C(N)=O")
"> 100 µM"

Task: Output TGI of Cc1ccc(OCC2CO2)c(Br)c1 (configuration not stated)
Output: 39.1 µM

Task: Output TGI of Cc1cn(C2CC(n3cc(Cn4ccc(=O)[nH]c4=O)nn3)C(CO)O2)c(=O)[nH]c1=O (configuration not stated)
Output: > 100 µM

Task: Output TGI of C(=N\Nc1ncc(-c2cc3cc4c(cc3o2)OCO4)s1)/c1ccco1
Output: 3.68 µM

Task: Output TGI of c1ccc2c3c(ccc2c1)-c1[nH]ncc1CCO3
Output: 65.2 µM

Task: Output TGI of COc1ccc2c(c1)c(-c1nc(-c3cn(C)c4ccncc34)cs1)cn2C
Output: 3.17 µM

Task: Output TGI of O=C(Cc1ccc2ccccc2c1)NCc1ccc(C(=O)NCCc2ccccc2)cc1
Output: > 100 µM
